System: 324938-238-R-J1-PDC complex spheroid viability
protocol.details: Anticancer human tumor 324938-238-R-J1-PDC patient-derived bladder carcinoma cell line growth inhibition; active means viability on the fitted dose curve at most 10% of control; inactive means the rest
reported.conditions: second compound 0.316 µM; first compound 1 µM
Possible outcomes: T = active, F = inactive

| compound | cat |
| --- | --- |
| O=C(C=Cn1cnc(-c2cc(C(F)(F)F)cc(C(F)(F)F)c2)n1)NNc1cnccn1 + NC1CC1c1ccc(-c2cccc(O)c2)cc1 | T |
| CC1(C)CCC(CN2CCN(c3ccc(C(=O)NS(=O)(=O)c4ccc(NCC5CCOCC5)c([N+](=O)[O-])c4)c(Oc4cnc5[nH]ccc5c4)c3)CC2)=C(c2ccc(Cl)cc2)C1 + NC1CCC(NC2CC2c2ccccc2)CC1 | F |
| CC1COCCN1c1cc(-c2ccnn2C)c2ccnc(-c3ccn[nH]3)c2n1 (configuration not stated) + NC1CCC(NC2CC2c2ccccc2)CC1 | F |
| O=C(c1cc(Cc2n[nH]c(=O)c3ccccc23)ccc1F)N1CCN(C(=O)C2CC2)CC1 + NC1CCC(NC2CC2c2ccccc2)CC1 | F |
| CC(C)c1c(-c2ccccc2)nc2c(C#N)c[nH]n2c1=O + NC1CCC(NC2CC2c2ccccc2)CC1 | F |
| Nc1ncn(C2CC(O)C(CO)O2)c(=O)n1 (configuration not stated) + NC1CC1c1ccc(-c2cccc(O)c2)cc1 | F |
| CC1COCCN1c1cc(C2(S(C)(=N)=O)CC2)nc(-c2ccnc3[nH]ccc23)n1 (configuration not stated) + NC1CC1c1ccc(-c2cccc(O)c2)cc1 | F |

###

System: 324938-238-R-J1-PDC complex spheroid viability
protocol.details: Anticancer human tumor 324938-238-R-J1-PDC cell line growth inhibition; active = viability on the fitted dose curve at most 10% of control; inactive = the rest;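 further: spheroids also contain HUVEC and human MSCs and agents combined with iadademstat; spheroids exposed to agents for 7 days before readout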
reported.conditions: second compound 3.16 µM; first compound 0.001 µM
Possible outcomes: 1.0 for active, 0.0 for inactive

| compound | cat |
| --- | --- |
| Cn1ncnc1C1c2n[nH]c(=O)c3cc(F)cc(c23)NC1c1ccc(F)cc1 (stereo not drawn) + NC1CCC(NC2CC2c2ccccc2)CC1 | 0.0 |
| CC(C)CC(NC(=O)CNC(=O)c1cc(Cl)ccc1Cl)B1OC(=O)CC(CC(=O)O)(C(=O)O)O1 (stereo not drawn) + NC1CC1c1ccc(-c2cccc(O)c2)cc1 | 0.0 |
| CC[C@@]1(O)C(=O)OCc2c1cc1n(c2=O)Cc2cc3c(CN(C)C)c(O)ccc3nc2-1 + NC1CC1c1ccc(-c2cccc(O)c2)cc1 | 0.0 |
| CC(C)CC(NC(=O)CNC(=O)c1cc(Cl)ccc1Cl)B1OC(=O)CC(CC(=O)O)(C(=O)O)O1 (stereo not drawn) + NC1CCC(NC2CC2c2ccccc2)CC1 | 0.0 |
| Cn1ncnc1C1c2n[nH]c(=O)c3cc(F)cc(c23)NC1c1ccc(F)cc1 (stereo not drawn) + NC1CC1c1ccc(-c2cccc(O)c2)cc1 | 0.0 |
| CC[C@@]1(O)C(=O)OCc2c1cc1n(c2=O)Cc2cc3c(CN(C)C)c(O)ccc3nc2-1 + NC1CCC(NC2CC2c2ccccc2)CC1 | 0.0 |
| CC(C)CC(NC(=O)C(Cc1ccccc1)NC(=O)c1cnccn1)B(O)O (stereo not drawn) + NC1CCC(NC2CC2c2ccccc2)CC1 | 0.0 |
| CC(C)CC(NC(=O)C(Cc1ccccc1)NC(=O)c1cnccn1)B(O)O (stereo not drawn) + NC1CC1c1ccc(-c2cccc(O)c2)cc1 | 1.0 |
